Ref: PubChem BioAssay (NCI)

experiment: NCI Yeast Anticancer Drug Screen. Data for the mlh1 rad18 strain (AID 175); conditions: S. cerevisiae mlh1 rad18 strain growth inhibition; at 50.0 µM; active compounds read high
This is part of a sample that, as a whole, favours compounds with a hit. Of some 79,000 tested, about 15% had one in any assay.
value_type: growth inhibition (%)
Give bare numbers, in %.

These recorded examples may help you get a feel for the data.
Query block: // growth inhibition lookup, key: Cc1nnn[n-]1.N.N.N.N.N.[Cl-].[Co+3]
Result block: -16.5

Query block: // growth inhibition lookup, key: O=C(Sc1c[nH]c(=O)[nH]c1=O)c1ccc(N(CCCl)CCCl)cc1
Result block: -1.05

Query block: // growth inhibition lookup, key: O=C(Cl)OC1CS(=O)(=O)CC1O (stereo not drawn)
Result block: 0.25

Query block: // growth inhibition lookup, key: N.N.N.N.N.NC(=O)[O-].[Co+3].[I-]
Result block: -15.7

Query block: // growth inhibition lookup, key: Clc1cccc2ccccc12
Result block: 16.1

Query block: // growth inhibition lookup, key: N#CC1(c2ccccc2)CCNCC1
Result block: -17.8

Query block: // growth inhibition lookup, key: OC1(C#[C][Hg][C]#CC2(O)CCCCC2)CCCCC1
Result block: 95.4

Query block: // growth inhibition lookup, key: CC(C)COC(=O)Cc1ccccc1
Result block: 25.4

# batch: return growth inhibition for each of the 3 molecules below
1. Cn1c[n+](C)nn1
2. CCC1(CCO)C(=O)NC(=O)NC1=O
3. CCCC(OP(=S)(OCC)OCC)c1ccc(Cl)cc1 (stereo not drawn)

Result block:
1: -18.2; 2: -2.7; 3: -1.15

# batch: return growth inhibition for each of the 2 molecules below
1. CC(=O)NC1C([Se][As](C)C)OC(COC(C)=O)C(OC(C)=O)C1OC(C)=O (stereo not drawn)
2. CCC(Cl)COP(=O)(OCC(Cl)CC)C(CC)OP(=S)(OCC(Cl)CC)OCC(Cl)CC (stereo not drawn)

Result block:
1: -6.5; 2: 20.9
